assay: Luminescence Cell-Based Dose Retest to Confirm Inhibitors of Cancer Stem Cells. [Related pubchem assays (depositor defined):AID2717, AID2721]; type: functional; settings: Homo sapiens;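 further: cells exposed to compound for roughly 70 hours or longer before luminescence read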
The source made the active and inactive calls. No stated cut-off is given here; in the data, actives have a measured AC50 and inactives only a lower limit.
measured metric: AC50

Before answering, review these 5 worked examples.
compound	AC50
Cc1cccc(CN2CCN(C(c3ccccc3)c3ccc(Cl)cc3)CC2)c1 (stereo unspecified) [MECLIZINE DIHCL]	3.57 µM (active)
COc1ccc(NC2=NN=C(c3c(C)[nH]c4ccccc34)CS2)cc1	7.35 µM (active)
COc1ccc(-c2sc3ccccc3c2/C=C/c2ccncc2)cc1	4.57 µM (active)
CCN(CC)C1CCN(C(=O)c2cc(COc3ccc(F)cc3Cl)on2)C1 (stereo unspecified)	1.21 µM (active)
COc1ccc(C2=NN(c3nc4ccccc4s3)C(=O)C2)cc1	2.21 µM (active)

Then there is this compound:
-- ask Requested field: AC50. Item: "COc1cc2c(cc1NC(=O)CN(C)Cc1cccc(OC)c1OC)oc1ccccc12"
-- reply 2.86 µM (active)
